- Method summary: isobaric coefficient of expansion
- Test conditions: 298.15 K; 25000 kPa; Liquid; Microcalorimeter
Property measured: isobaric coefficient of expansion

{"Molecule": "CCCCCC[n+]1ccn(C)c1.O=S(=O)([N-]S(=O)(=O)C(F)(F)F)C(F)(F)F", "Result value": "0.000626 1/K"}
{"Molecule": "CCCCCCCC[n+]1ccn(C)c1.F[B-](F)(F)F [1-methyl-3-octylimidazolium tetrafluoroborate]", "Result value": "0.00058 1/K"}
{"Molecule": "CCCCCCn1cc[n+](C)c1.F[B-](F)(F)F [1-hexyl-3-methylimidazolium tetrafluoroborate]", "Result value": "0.00058 1/K"}
{"Molecule": "CCn1cc[n+](C)c1.F[B-](F)(F)F [1-ethyl-3-methylimidazolium tetrafluoroborate]", "Result value": "0.000575 1/K"}
{"Molecule": "CCCC[n+]1cccc(C)c1.F[B-](F)(F)F [1-butyl-3-methylpyridinium tetrafluoroborate]", "Result value": "0.000572 1/K"}
{"Molecule": "CCn1cc[n+](C)c1.O=S(=O)([N-]S(=O)(=O)C(F)(F)F)C(F)(F)F", "Result value": "0.000624 1/K"}

---

- Method summary: isobaric coefficient of expansion
- Test conditions: 278.15 K; 35000 kPa; Liquid; Microcalorimeter
Overview of reported isobaric coefficient of expansion across a group of compounds:

{"Compound": "CCn1cc[n+](C)c1.O=S(=O)([N-]S(=O)(=O)C(F)(F)F)C(F)(F)F", "isobaric coefficient of expansion": "0.000623 1/K"}
{"Compound": "CCCCCCn1cc[n+](C)c1.F[B-](F)(F)F [1-hexyl-3-methylimidazolium tetrafluoroborate]", "isobaric coefficient of expansion": "0.000576 1/K"}
{"Compound": "CCCC[n+]1cccc(C)c1.F[B-](F)(F)F [1-butyl-3-methylpyridinium tetrafluoroborate]", "isobaric coefficient of expansion": "0.000576 1/K"}
{"Compound": "CCn1cc[n+](C)c1.F[B-](F)(F)F [1-ethyl-3-methylimidazolium tetrafluoroborate]", "isobaric coefficient of expansion": "0.000574 1/K"}
{"Compound": "CCCCCCCC[n+]1ccn(C)c1.F[B-](F)(F)F [1-methyl-3-octylimidazolium tetrafluoroborate]", "isobaric coefficient of expansion": "0.000576 1/K"}
{"Compound": "CCCCCC[n+]1ccn(C)c1.O=S(=O)([N-]S(=O)(=O)C(F)(F)F)C(F)(F)F", "isobaric coefficient of expansion": "0.000619 1/K"}

---

- Method summary: isobaric coefficient of expansion
- Test conditions: 288.15 K; 40000 kPa; Liquid; Microcalorimeter
Overview of reported isobaric coefficient of expansion across a group of compounds:

{"Compound": "CCn1cc[n+](C)c1.O=S(=O)([N-]S(=O)(=O)C(F)(F)F)C(F)(F)F", "isobaric coefficient of expansion": "0.000606 1/K"}
{"Compound": "CCn1cc[n+](C)c1.F[B-](F)(F)F [1-ethyl-3-methylimidazolium tetrafluoroborate]", "isobaric coefficient of expansion": "0.000561 1/K"}
{"Compound": "CCCCCCn1cc[n+](C)c1.F[B-](F)(F)F [1-hexyl-3-methylimidazolium tetrafluoroborate]", "isobaric coefficient of expansion": "0.000565 1/K"}
{"Compound": "CCCC[n+]1cccc(C)c1.F[B-](F)(F)F [1-butyl-3-methylpyridinium tetrafluoroborate]", "isobaric coefficient of expansion": "0.000564 1/K"}
{"Compound": "CCCCCC[n+]1ccn(C)c1.O=S(=O)([N-]S(=O)(=O)C(F)(F)F)C(F)(F)F", "isobaric coefficient of expansion": "0.000604 1/K"}
{"Compound": "CCCCCCCC[n+]1ccn(C)c1.F[B-](F)(F)F [1-methyl-3-octylimidazolium tetrafluoroborate]", "isobaric coefficient of expansion": "0.000565 1/K"}

---

- Method summary: isobaric coefficient of expansion
- Test conditions: 328.15 K; 25000 kPa; Liquid; Microcalorimeter
Overview of reported isobaric coefficient of expansion across a group of molecules:

{"Molecule": "CCn1cc[n+](C)c1.O=S(=O)([N-]S(=O)(=O)C(F)(F)F)C(F)(F)F", "isobaric coefficient of expansion": "0.000609 1/K"}
{"Molecule": "CCCCCC[n+]1ccn(C)c1.O=S(=O)([N-]S(=O)(=O)C(F)(F)F)C(F)(F)F", "isobaric coefficient of expansion": "0.000609 1/K"}
{"Molecule": "CCCCCCCC[n+]1ccn(C)c1.F[B-](F)(F)F [1-methyl-3-octylimidazolium tetrafluoroborate]", "isobaric coefficient of expansion": "0.000562 1/K"}
{"Molecule": "CCCCCCn1cc[n+](C)c1.F[B-](F)(F)F [1-hexyl-3-methylimidazolium tetrafluoroborate]", "isobaric coefficient of expansion": "0.000562 1/K"}
{"Molecule": "CCCC[n+]1cccc(C)c1.F[B-](F)(F)F [1-butyl-3-methylpyridinium tetrafluoroborate]", "isobaric coefficient of expansion": "0.000554 1/K"}
{"Molecule": "CCn1cc[n+](C)c1.F[B-](F)(F)F [1-ethyl-3-methylimidazolium tetrafluoroborate]", "isobaric coefficient of expansion": "0.000557 1/K"}

---

- Method summary: isobaric coefficient of expansion
- Test conditions: 348.15 K; 20000 kPa; Liquid; Microcalorimeter
Overview of reported isobaric coefficient of expansion across a group of compounds:
Property measured: isobaric coefficient of expansion

{"Compound": "CCCCCCCC[n+]1ccn(C)c1.F[B-](F)(F)F [1-methyl-3-octylimidazolium tetrafluoroborate]", "Property measured": "isobaric coefficient of expansion", "Result value": "0.000563 1/K"}
{"Compound": "CCCCCC[n+]1ccn(C)c1.O=S(=O)([N-]S(=O)(=O)C(F)(F)F)C(F)(F)F", "Property measured": "isobaric coefficient of expansion", "Result value": "0.00061 1/K"}
{"Compound": "CCCC[n+]1cccc(C)c1.F[B-](F)(F)F [1-butyl-3-methylpyridinium tetrafluoroborate]", "Property measured": "isobaric coefficient of expansion", "Result value": "0.000554 1/K"}
{"Compound": "CCn1cc[n+](C)c1.F[B-](F)(F)F [1-ethyl-3-methylimidazolium tetrafluoroborate]", "Property measured": "isobaric coefficient of expansion", "Result value": "0.000562 1/K"}
{"Compound": "CCn1cc[n+](C)c1.O=S(=O)([N-]S(=O)(=O)C(F)(F)F)C(F)(F)F", "Property measured": "isobaric coefficient of expansion", "Result value": "0.000612 1/K"}
{"Compound": "CCCCCCn1cc[n+](C)c1.F[B-](F)(F)F [1-hexyl-3-methylimidazolium tetrafluoroborate]", "Property measured": "isobaric coefficient of expansion", "Result value": "0.000563 1/K"}

---

- Method summary: isobaric coefficient of expansion
- Test conditions: 298.15 K; 50000 kPa; Liquid; Microcalorimeter

{"Molecule": "CCn1cc[n+](C)c1.O=S(=O)([N-]S(=O)(=O)C(F)(F)F)C(F)(F)F", "isobaric coefficient of expansion": "0.000589 1/K"}
{"Molecule": "CCCC[n+]1cccc(C)c1.F[B-](F)(F)F [1-butyl-3-methylpyridinium tetrafluoroborate]", "isobaric coefficient of expansion": "0.000549 1/K"}
{"Molecule": "CCCCCC[n+]1ccn(C)c1.O=S(=O)([N-]S(=O)(=O)C(F)(F)F)C(F)(F)F", "isobaric coefficient of expansion": "0.000584 1/K"}
{"Molecule": "CCn1cc[n+](C)c1.F[B-](F)(F)F [1-ethyl-3-methylimidazolium tetrafluoroborate]", "isobaric coefficient of expansion": "0.000545 1/K"}
{"Molecule": "CCCCCCn1cc[n+](C)c1.F[B-](F)(F)F [1-hexyl-3-methylimidazolium tetrafluoroborate]", "isobaric coefficient of expansion": "0.000547 1/K"}
{"Molecule": "CCCCCCCC[n+]1ccn(C)c1.F[B-](F)(F)F [1-methyl-3-octylimidazolium tetrafluoroborate]", "isobaric coefficient of expansion": "0.000547 1/K"}

---

- Method summary: isobaric coefficient of expansion
- Test conditions: 338.15 K; 45000 kPa; Liquid; Microcalorimeter

{"Compound": "CCCCCC[n+]1ccn(C)c1.O=S(=O)([N-]S(=O)(=O)C(F)(F)F)C(F)(F)F", "isobaric coefficient of expansion": "0.000571 1/K"}
{"Compound": "CCCC[n+]1cccc(C)c1.F[B-](F)(F)F [1-butyl-3-methylpyridinium tetrafluoroborate]", "isobaric coefficient of expansion": "0.00053 1/K"}
{"Compound": "CCCCCCn1cc[n+](C)c1.F[B-](F)(F)F [1-hexyl-3-methylimidazolium tetrafluoroborate]", "isobaric coefficient of expansion": "0.000532 1/K"}
{"Compound": "CCn1cc[n+](C)c1.F[B-](F)(F)F [1-ethyl-3-methylimidazolium tetrafluoroborate]", "isobaric coefficient of expansion": "0.000529 1/K"}
{"Compound": "CCn1cc[n+](C)c1.O=S(=O)([N-]S(=O)(=O)C(F)(F)F)C(F)(F)F", "isobaric coefficient of expansion": "0.000574 1/K"}
{"Compound": "CCCCCCCC[n+]1ccn(C)c1.F[B-](F)(F)F [1-methyl-3-octylimidazolium tetrafluoroborate]", "isobaric coefficient of expansion": "0.000532 1/K"}
